procedure summary: Dark toxicity in human Keratinocytes assessed as reduction in cell viability
Format: cell-based, Keratinocyte
pIC50: −log10 of the molar value.

{"columns": ["compound", "pIC50"],
 "data": [
  ["Cc1nsc(N2CC3CCC(C2)C3Nc2nc3c(-c4ccc(F)c(F)c4F)cccn3n2)n1 (stereo unspecified)", "< 4.42"]
]}

---

procedure summary: Oral bioavailability in minipig at 3 mg/kg via gavage measured over 240 hrs
Assay type: ADME, organism-based, Sus scrofa domesticus
cond: pig, in vivo
outcome measure: bioavailability (%)

{"columns": ["structure smiles", "reported"],
 "data": [
  ["Cc1nnc(N2C[C@H]3CC[C@@H](C2)[C@@H]3Nc2nc3c(O[C@@H](C)C(F)(F)F)ccc(C(F)(F)F)n3n2)o1", 27]
]}
